- Test protocol: Therapeutic index, ratio of LC50 for acute toxicity in gold fish infected with Gyrodactylus kobayashii to EC50 for antiparasitic activity against Gyrodactylus kobayashii infected in gold fish
- Measurement context: goldfish
Parameter measured: selectivity ratio

{"columns": ["Smiles structure", "Val"],
 "data": [
  ["CC1=CC(=O)c2ccccc2C1=O", 3.5],
  ["O=C1C=CC(=O)c2ccccc21", 4.89],
  ["CC(C)=CC[C@@H](O)C1=CC(=O)c2c(O)ccc(O)c2C1=O", 3.49],
  ["O=C1C=C(O)C(=O)c2ccccc21", 3.03]
]}

----------
molecules and their reported log10(LC50 at 48 h)
- Test protocol: Acute toxicity in gold fish infected with Gyrodactylus kobayashii measure upto 48 hrs by microscopic analysis
- Measurement context: carassius auratus
Parameter measured: log10(LC50 at 48 h) (log10 of the value in µg/mL)

{"columns": ["Molecule", "Val"],
 "data": [
  ["CO[C@H]1C[C@H](O[C@H]2CC[C@]3(C)[C@H]4CC[C@]5(C)[C@@H](C6=CC(=O)OC6)CC[C@]5(O)[C@@H]4CC[C@]3(O)C2)O[C@H](C)[C@H]1O[C@@H]1O[C@H](CO)[C@@H](O)[C@H](O)[C@H]1O", 0.61],
  ["COc1cc(C[C@H]2C(=O)OC[C@@H]2Cc2ccc(OC)c(OC)c2)ccc1O", 1.06],
  ["O=C(/C=C/c1ccccc1)c1ccccc1", 0.88],
  ["Cc1c([C@H](C)[C@@H]2NC[C@@H](C)C[C@H]2O)ccc2c1C[C@H]1[C@H]2CC=C2C[C@@H](O[C@@H]3O[C@H](CO)[C@@H](O)[C@H](O)[C@H]3O)CC[C@@]21C", 1.18],
  ["O=C1C=CC(=O)c2ccccc21", -0.64],
  ["COc1cc(C2Oc3ccc(C4Oc5cc(O)cc(O)c5C(=O)C4O)cc3OC2CO)ccc1O (stereo unspecified)", 1.42]
]}

----------
- Test protocol: Inhibition of Gyrodactylus kobayashii Myosin N439A mutant ATPase activity incubated for 30 min

{"columns": ["Smiles structure", "Units label", "IC50"],
 "data": [
  ["COc1cc(C[C@H]2C(=O)OC[C@@H]2Cc2ccc(OC)c(OC)c2)ccc1O", "mM", 3.21]
]}

----------
- Test protocol: Acute toxicity in gold fish infected with Gyrodactylus kobayashii measure upto 48 hrs by microscopic analysis
- Measurement context: carassius auratus
Parameter measured: LC50 at 48 h (µg/mL)

{"columns": ["Compound", "Val"],
 "data": [
  ["O=C1OC[C@H]2O[C@@H](Oc3cc(O)c(C(=O)CCc4ccccc4)c(O)c3)[C@H](O)[C@@H](O)[C@@H]2OC(=O)c2cc(O)c(O)c(O)c2-c2c1cc(O)c(O)c2O", 21.5],
  ["COc1ccc(CCC(=O)c2c(O)cc(O[C@@H]3O[C@H](CO)[C@@H](O)[C@H](O)[C@H]3O[C@@H]3O[C@@H](C)[C@H](O)[C@@H](O)[C@H]3O)cc2O)cc1O [NEOHESPERIDIN DIHYDROCHALCONE]", 25.5],
  ["C[C@@H]1O[C@@H](O[C@H]2C(=O)c3c(O)cc(O)cc3O[C@H]2c2ccc(O)c(O)c2)[C@H](O)[C@H](O)[C@H]1O", 26.5],
  ["C[C@@H]1O[C@@H](Oc2cc(O)c3c(=O)c(O)c(-c4ccc(O)cc4)oc3c2O)[C@H](O)[C@H](O[C@@H]2O[C@H](CO)[C@@H](O)[C@H](O)[C@H]2O)[C@H]1O", 13.2],
  ["NC(=O)[C@@H]1CCCN1C(=O)[C@H](Cc1cnc[nH]1)NC(=O)[C@@H]1CCC(=O)N1", 16.3],
  ["CC1=CC(=O)c2ccccc2C1=O", 1.19],
  ["O=C1C=C(O)C(=O)c2ccccc21", 10.7],
  ["CC(C)=CC[C@@H](O)C1=CC(=O)c2c(O)ccc(O)c2C1=O", 1.29],
  ["O=C1c2ccccc2C(=O)c2c1cc(O[C@@H]1O[C@H](CO[C@@H]3OC[C@@H](O)[C@H](O)[C@H]3O)[C@@H](O)[C@H](O)[C@H]1O)c(CO)c2O [LUCIDIN PRIMEVOROSIDE]", 8.24],
  ["COC(=O)[C@H]1O[C@@H](Oc2cc3oc(-c4ccc(O)cc4)cc(=O)c3c(O)c2O)[C@H](O)[C@@H](O)[C@@H]1O", 11.4],
  ["C[C@@H]1O[C@@H](Oc2cc(O)c3c(=O)c(O)c(-c4ccc(O)cc4)oc3c2)[C@H](O)[C@H](O)[C@H]1O", 9.3],
  ["O=C(O)[C@H]1O[C@@H](Oc2cc3oc(-c4ccc(O)cc4)cc(=O)c3c(O)c2O)[C@H](O)[C@@H](O)[C@@H]1O", 13.3],
  ["CCCCC[C@H](O)/C=C/[C@H]1[C@H](O)CC(=O)[C@@H]1CCCCCCC(=O)O", 30.5]
]}
